src = the supplement of paper PMC9170038

Parameter: apparent KD of MS2 coat protein. Scope: all listed entries.
# Test system: MS2 coat protein
# assay_comment: apparent KD of MS2 coat protein; designed switch direction (-1 OFF switch, 1 ON switch): -1; higher = weaker reporter binding
# cond: input ligand: FMN 200 uM
measurement_label: apparent KD of MS2 coat protein

[
  {
    "biopolymer_sequence": "AGGUGUAGAGGAUAUUUAUUCUUCCACAUGAGGAUCACCCAUGUCCUGGUCACCAAGGACGGAGAAGGCUACACCA [Omei Ex5 D24] (Eterna round: R97, puzzle: Exclusion 5)",
    "test_value": "57.4 nM"
  },
  {
    "biopolymer_sequence": "UUGCCACAUGAGGAUCACCCAUGUGAGGAUAUGGCCUGUUUGGAGUGUGCUGGUUCUGUCAGAAGGCGCGUGGG [salish99_ex1_r4_033] (Eterna round: R97, puzzle: Exclusion 1)",
    "test_value": "49.5 nM"
  },
  {
    "biopolymer_sequence": "CUAUGCAAAGUAAGGAUAUGCUUCCGGAAACGGAGGCAGAAGGUACAUGAGGAUCACCCAUGUUAAACGCAUAG [Explosion 4 - Jieux - Brourd's mod of Exclusion 4] (Eterna round: R97, puzzle: Brourd's mod of Exclusion 4)",
    "test_value": "16.8 nM"
  },
  {
    "biopolymer_sequence": "CGCUGGACAGGAUAUGUUCUUGAGCACUUGAGGAUCACCCAAGUCAUCAAGAACUCAGGCACAGAAGGGUUUAUGG [salish99_ex5_r4_016] (Eterna round: R97, puzzle: Exclusion 5)",
    "test_value": "24.6 nM"
  },
  {
    "biopolymer_sequence": "AAGCUCACACGCUCGUCUUACAUGAGGAUCACCCAUGUCGCCGAGCUUCACAGGCUGAAGCUCAUAUAGGGUCAUGA [Eternabot (L2) Solution 26] (Eterna round: R97, puzzle: Sensor, turn-off variant 1)",
    "test_value": "85.1 nM"
  },
  {
    "biopolymer_sequence": "AAGGGUGCCUUUAGAAAGACAUGAGGAUCACCCAUGUAGACUGAGGAUAUCCACUCCUAAGGACCGGAGAAGGCAGUGUAAUGC [Ex NG3 #62] (Eterna round: R96, puzzle: Exclusion NG 3)",
    "test_value": "62.1 nM"
  },
  {
    "biopolymer_sequence": "AGGUCUCGUGUCAGGAUAUAUUUUCUCUGAGCAAGGUAGAAGGGACAUGAGGAUCACCCAUGUCUGAGGAAAAU [Eternabot (L1) Solution 34] (Eterna round: R97, puzzle: Brourd's mod of Exclusion 4)",
    "test_value": "24 nM"
  },
  {
    "biopolymer_sequence": "GCAAGAAUAGGAUAUACACCAUGUCAGCUUCUAUACAACGCACAUGAGGAUCACCCAUGUAGAAGGGUUCUCUG [Exclusion-2-#10] (Eterna round: R97, puzzle: Exclusion 2)",
    "test_value": "358 nM"
  },
  {
    "biopolymer_sequence": "ACUUAUUGAGGAUAUACAGAUUAUUACAUGAGGAUCACCCAUGUUCUUCAAUGUAUAUAUGUAGAAGGCAGAAGAU [Mat - Exclusion 5 - JL Mod - D15] (Eterna round: R97, puzzle: Exclusion 5)",
    "test_value": "177 nM"
  },
  {
    "biopolymer_sequence": "UUUUUGUAUGAAGGAUAUACUUAACAUGAGGAUCACCCAUGUGGUGUUGUGAGUGAGUGAGUUUAGUAGAAGGUCAAUUAUUUU [JMF's solution 24] (Eterna round: R96, puzzle: Exclusion NG 2)",
    "test_value": "843 nM"
  },
  {
    "biopolymer_sequence": "GCUGGUCGAGGAUAUACAUGAGGAUCACCCAUGUAGAUCAACCAGCUUCGGCUGGAAUGUAGAAGGCGACCAGC [E3/5-A4] (Eterna round: R97, puzzle: Exclusion 3)",
    "test_value": "117 nM"
  },
  {
    "biopolymer_sequence": "GCUCGCUGAGGAUAUACUAAAACACGCUCUGGGAGGUCUUGACUUGAGGAUCACCCAAGUAGAAGGCAGUUAAA [Zaesleeran] (Eterna round: R97, puzzle: Exclusion 2)",
    "test_value": "437 nM"
  },
  {
    "biopolymer_sequence": "CUGAACCCGGUAGGAUAUAUUGUGGGCGGGCGUGGAACGACAUGAGGAUCACCCAUGUAAUUGAGGUAGAAGGGCCGAGAGGUU [Excl-NG2-LRO16] (Eterna round: R96, puzzle: Exclusion NG 2)",
    "test_value": "38.5 nM"
  },
  {
    "biopolymer_sequence": "GGAAUACCCUCGAGUUAUCACAUGAGGAUCACCCAUGUCCCAAGCCUUUUGCUCUGAGCUGCGUAUACGCAGAUGUA [Eternabot (Original) Solution 23] (Eterna round: R97, puzzle: Sensor, turn-off variant 1)",
    "test_value": "112 nM"
  },
  {
    "biopolymer_sequence": "ACAUGAGGAUCACCCAUGUCCGGCUGGUCUGUUUCGGUUGUCGAGGAUAUAGUUCGGUGUUCGCGCUAGAAGGUGGGAGCUGGG [Aenatbe mod 56] (Eterna round: R96, puzzle: Exclusion NG 3)",
    "test_value": "161 nM"
  },
  {
    "biopolymer_sequence": "AUAAUGUAAGGAUAUCAGUCGACUAGCCUCGGCUAGUCGACUGAGAAGGUACAUGAGGAUCACCCAUGUGAAUA [E4/16-A2] (Eterna round: R97, puzzle: Exclusion 4)",
    "test_value": "228 nM"
  },
  {
    "biopolymer_sequence": "GGAUGAGGAGUGAGGAUAUCGUGUUCGAAAGAACGUGAGAAGGCACAUGAGGAUCACCCAUGUGAUCCUCAUCG [Omei Ex4B A22] (Eterna round: R97, puzzle: Brourd's mod of Exclusion 4)",
    "test_value": "365 nM"
  },
  {
    "biopolymer_sequence": "AACAUGGCAGGAUAUUGAAAAUUGCACUUGAGGAUCACCCAAGUGGUUCUGCGGGCGAAGUAAGAAGGGCCUAAAA [Xeraabi] (Eterna round: R97, puzzle: Exclusion 5)",
    "test_value": "232 nM"
  }
]
